Give IC50 for every item shown.
- target-or-test-system: B. subtilis pol IIIC (Bacillus subtilis)
- Construct: made in house
- Sequence (P13267 whole entry): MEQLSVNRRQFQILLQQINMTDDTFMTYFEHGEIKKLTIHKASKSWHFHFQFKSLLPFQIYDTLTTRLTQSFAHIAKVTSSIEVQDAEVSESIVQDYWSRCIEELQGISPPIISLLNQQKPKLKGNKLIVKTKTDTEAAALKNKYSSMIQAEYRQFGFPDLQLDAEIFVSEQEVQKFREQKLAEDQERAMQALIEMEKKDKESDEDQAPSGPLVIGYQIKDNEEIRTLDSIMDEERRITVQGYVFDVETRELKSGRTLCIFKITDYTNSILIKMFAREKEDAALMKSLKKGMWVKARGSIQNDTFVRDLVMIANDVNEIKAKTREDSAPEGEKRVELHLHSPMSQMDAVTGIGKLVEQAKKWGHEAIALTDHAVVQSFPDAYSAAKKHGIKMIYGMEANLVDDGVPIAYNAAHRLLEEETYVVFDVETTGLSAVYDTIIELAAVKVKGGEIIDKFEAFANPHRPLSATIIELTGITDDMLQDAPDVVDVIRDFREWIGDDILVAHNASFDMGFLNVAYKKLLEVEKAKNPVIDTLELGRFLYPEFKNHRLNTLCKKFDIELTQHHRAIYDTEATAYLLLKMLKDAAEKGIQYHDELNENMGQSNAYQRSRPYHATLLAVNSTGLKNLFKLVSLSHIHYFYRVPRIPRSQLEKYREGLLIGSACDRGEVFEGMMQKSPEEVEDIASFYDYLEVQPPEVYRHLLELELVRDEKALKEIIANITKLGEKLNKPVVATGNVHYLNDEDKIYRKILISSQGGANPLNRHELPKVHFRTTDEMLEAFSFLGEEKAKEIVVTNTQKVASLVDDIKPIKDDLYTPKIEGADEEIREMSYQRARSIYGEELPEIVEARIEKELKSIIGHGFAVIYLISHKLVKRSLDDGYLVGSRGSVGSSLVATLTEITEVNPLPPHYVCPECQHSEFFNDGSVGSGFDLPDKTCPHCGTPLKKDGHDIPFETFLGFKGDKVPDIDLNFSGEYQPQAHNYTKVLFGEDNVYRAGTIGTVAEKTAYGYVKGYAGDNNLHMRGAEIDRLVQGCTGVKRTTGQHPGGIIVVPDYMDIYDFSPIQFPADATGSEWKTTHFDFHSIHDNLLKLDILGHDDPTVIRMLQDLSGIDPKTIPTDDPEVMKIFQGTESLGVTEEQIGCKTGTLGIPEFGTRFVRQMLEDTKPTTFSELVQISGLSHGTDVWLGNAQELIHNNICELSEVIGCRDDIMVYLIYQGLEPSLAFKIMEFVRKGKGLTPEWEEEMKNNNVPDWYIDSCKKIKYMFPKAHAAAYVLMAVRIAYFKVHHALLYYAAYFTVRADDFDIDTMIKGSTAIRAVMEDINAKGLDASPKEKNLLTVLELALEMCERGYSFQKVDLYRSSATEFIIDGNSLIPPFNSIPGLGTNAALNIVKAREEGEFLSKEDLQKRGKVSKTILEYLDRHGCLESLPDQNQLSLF
- experimental-protocol: DNA polymerase assay, B. subtilis pol IIIC
- Type: biochemical
- condition-notes: B. subtilis Pol IIIC IC50, −dATP, in the absence of dATP

CCOc1cc(C=NNC(=O)c2cc(-c3cccc(OC)c3)n[nH]2)ccc1O: 141 µM
COc1ccc(-c2cc(C(=O)NN=Cc3ccc(OC)c(OC)c3)[nH]n2)cc1: 23 µM
COc1ccc(-c2cc(C(=O)NN=Cc3cc(OC)c(OC)c(OC)c3)[nH]n2)cc1: 3.1 µM
COc1cc(C=NNC(=O)c2cc(-c3ccccc3)n[nH]2)ccc1O: 41 µM
COc1ccc(-c2cc(C(=O)NN=Cc3ccc(O)cc3)[nH]n2)cc1: 89 µM
COc1cccc(-c2cc(C(=O)NN=Cc3ccc(OC)c(OC)c3)[nH]n2)c1: 99 µM

Please state IC50 for every compound in the list that follows.
1. CCOc1ccc(-c2cc(C(=O)NN=Cc3ccc(O)c(OC)c3)[nH]n2)cc1
2. O=C(NN=Cc1ccc(O)cc1O)c1cc(-c2ccccc2)n[nH]1
3. COc1cc(C=NNC(=O)c2cc(-c3ccccc3)n[nH]2)cc(OC)c1OC

Return:
9 µM
81 µM
10 µM

###

- System: methicillin-resistant S. aureus strain 1094
- experimental-protocol: Inhibition of bacterial growth (MIC), MRSA
- Assay type: cell-based, Staphylococcus aureus
- condition-notes: Staphylococcus aureus, MRSA, 16 to 18 hours, 37° C., read-out: Minimum Inhibitory Concentration for Bacterial Growth, MRSA
quantity-kind: MIC (µg/mL)
Answers are plain numbers, in µg/mL.

Examples from the recorded data:
COc1cc(C=NNC(=O)c2cc(-c3ccccc3)n[nH]2)cc(OC)c1OC [Compound 1]: 10
O=C(NN=Cc1ccc(O)cc1O)c1cc(-c2ccccc2)n[nH]1 [Compound 4]: 40
COc1cccc(-c2cc(C(=O)NN=Cc3ccc(OC)c(OC)c3)[nH]n2)c1 [Compound 2]: 20

As a next step, examine the molecule that follows.
Enquiry: Hi! What's the reported MIC for COc1ccc(-c2cc(C(=O)NN=Cc3ccc(OC)c(OC)c3)[nH]n2)cc1 [Compound 18] on methicillin-resistant S. aureus strain 1094?
Return: 10

###

- target-or-test-system: B. subtilis pol IIIE (Bacillus subtilis)
- Construct: made in house
- Sequence (O34623 whole entry): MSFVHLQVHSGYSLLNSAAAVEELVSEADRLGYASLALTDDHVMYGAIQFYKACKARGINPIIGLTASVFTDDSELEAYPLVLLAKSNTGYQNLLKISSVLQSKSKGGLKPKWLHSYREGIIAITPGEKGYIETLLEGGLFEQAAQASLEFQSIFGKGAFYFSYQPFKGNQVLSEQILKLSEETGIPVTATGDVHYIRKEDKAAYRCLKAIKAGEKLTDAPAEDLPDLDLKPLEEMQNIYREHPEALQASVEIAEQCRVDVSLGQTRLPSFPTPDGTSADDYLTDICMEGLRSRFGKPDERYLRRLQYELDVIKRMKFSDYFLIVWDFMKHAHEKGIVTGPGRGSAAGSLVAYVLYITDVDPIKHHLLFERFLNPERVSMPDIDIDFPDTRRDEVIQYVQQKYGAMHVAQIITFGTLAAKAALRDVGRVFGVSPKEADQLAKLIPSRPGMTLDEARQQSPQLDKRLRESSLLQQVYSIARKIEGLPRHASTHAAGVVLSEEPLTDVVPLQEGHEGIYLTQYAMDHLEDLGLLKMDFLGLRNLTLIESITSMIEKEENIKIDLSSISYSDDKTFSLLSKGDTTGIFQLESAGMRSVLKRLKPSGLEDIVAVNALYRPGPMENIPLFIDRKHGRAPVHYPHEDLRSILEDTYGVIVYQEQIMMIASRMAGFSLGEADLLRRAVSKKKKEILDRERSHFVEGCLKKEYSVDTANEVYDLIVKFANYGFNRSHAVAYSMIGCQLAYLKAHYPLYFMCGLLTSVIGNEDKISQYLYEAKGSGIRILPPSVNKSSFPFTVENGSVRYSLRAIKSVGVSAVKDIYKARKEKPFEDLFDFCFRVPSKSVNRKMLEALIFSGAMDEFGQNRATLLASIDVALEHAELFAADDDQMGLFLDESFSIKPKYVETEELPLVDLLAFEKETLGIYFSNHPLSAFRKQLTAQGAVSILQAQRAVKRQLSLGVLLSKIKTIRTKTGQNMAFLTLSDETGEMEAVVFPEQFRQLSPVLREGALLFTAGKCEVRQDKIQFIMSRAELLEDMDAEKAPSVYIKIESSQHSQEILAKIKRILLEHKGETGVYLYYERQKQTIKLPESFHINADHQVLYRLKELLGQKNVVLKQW
- experimental-protocol: DNA polymerase assay, B. subtilis pol IIIE
- Assay type: biochemical
- condition-notes: B. subtilis Pol IIIE IC50, −dCTP, in the absence of dCTP
quantity-kind: IC50 (µM)
Give bare numbers, in µM.

Examples from the recorded data:
COc1cc(C=NNC(=O)c2cc(-c3ccccc3)n[nH]2)cc(OC)c1OC: 62
COc1cccc(-c2cc(C(=O)NN=Cc3ccc(OC)c(OC)c3)[nH]n2)c1: 104
COc1cc(C=NNC(=O)c2cc(-c3ccccc3)n[nH]2)ccc1O: 383

Please state IC50 for every molecule in the list that follows.
1. COc1ccc(-c2cc(C(=O)NN=Cc3ccc(O)cc3)[nH]n2)cc1
2. CCOc1cc(C=NNC(=O)c2cc(-c3cccc(OC)c3)n[nH]2)ccc1O
3. O=C(NN=Cc1ccc(O)cc1O)c1cc(-c2ccccc2)n[nH]1

Return:
1. 156
2. 222
3. 347
